Overview of reported EC50 across a group of compounds:
# Test system: HCV replicon in cell line ET (luc-ubi-neo/ET), Huh7 human hepatoma
# assay.procedure: HCV subgenomic replicon assay, luciferase end point
# Assay type: cell-based
# recorded.conditions: Table 13, HCV replicon luciferase; read-out: Antiviral activity EC50
*1 amine or outer side, *2 acyl side, *3 side chain or, on linkers, in order; H or OH if unused. Where a SMILES comes first, the peptide text is derived from it. [ ]: non-standard residue; d: D form. X10 = CN(C(CC(C)(C)OCc1ccccc1)C(=O)[*:2])[*:1]; X3 = CC=CCC(C)C(O)C(C(=O)[*:2])N(C)[*:1]; X7 = CN(C(SCCCN1CCOCC1)C(=O)[*:2])[*:1]; NMeL = CN[CH](CC(C)C)C(=O)O; NMeV = CN[CH](C(=O)O)C(C)C; Abu = CC[CH](N)C(=O)O
Note: unit nM is implicit; provide only the numeric part.

Below are worked cases with known answers.
CC=CCC(C)C(O)C1C(=O)NC(CC)C(=O)N(C)CC(=O)N(C)C(CO)C(=O)NC(C(C)C)C(=O)N(C)C(CC(C)C)C(=O)NC(C)C(=O)NC(C)C(=O)N(C)C(CC(C)C)C(=O)N(C)C(CC(C)C)C(=O)N(C)C(C(C)C)C(=O)N1C (stereo not drawn) [[N-MeSer]-4-cyclosporin] = 560
CC=CCC(C)C(O)C1C(=O)NC(CC)C(=O)N(C)C(SCCCN2CCOCC2)C(=O)N(C)C(CC(C)(C)OCc2ccccc2)C(=O)NC(C(C)C)C(=O)N(C)C(CC(C)C)C(=O)NC(C)C(=O)NC(C)C(=O)N(C)C(CC(C)C)C(=O)N(C)C(CC(C)C)C(=O)N(C)C(C(C)C)C(=O)N1C (stereo not drawn) (cyclo([X3][Abu][X7][X10]V[NMeL]AA[NMeL][NMeL][NMeV]); configuration not given here) = 280

Query compound follows.
*Q* Provide one value: measured EC50 of C/C=C/C[C@@H](C)[C@@H](O)[C@H]1C(=O)N[C@@H](CC)C(=O)N(C)[C@H](CSCCN(CC)CC)C(=O)N(C)[C@@H](CC(C)(C)O)C(=O)N[C@@H](C(C)C)C(=O)N(C)[C@@H](CC(C)C)C(=O)N[C@@H](C)C(=O)N[C@H](C)C(=O)N(C)[C@@H](CC(C)C)C(=O)N(C)[C@@H](CC(C)C)C(=O)N(C)[C@@H](C(C)C)C(=O)N1C (single isomer, unassigned; isomer b)
*A* 30

###

# System: HCV replicon in cell line ET (luc-ubi-neo/ET), Huh7 human hepatoma
# assay.procedure: HCV subgenomic replicon assay, luciferase end point
# Assay type: cell-based
# recorded.conditions: Hepatitis C virus, Huh-7, HCV subgenomic replicon, cell line ET (luc-ubi-neo/ET) Huh7, luciferase end point; read-out: Antiviral activity EC50
measurement.label: EC50

C/C=C/C[C@@H](C)[C@@H](O)[C@H]1C(=O)N[C@@H](CC)C(=O)N(C)[C@H](CSCCNCC(C)(C)C)C(=O)N(C)[C@@H](CC(C)(C)O)C(=O)N[C@@H](C(C)C)C(=O)N(C)[C@@H](CC(C)C)C(=O)N[C@@H](C)C(=O)N[C@H](C)C(=O)N(C)[C@@H](CC(C)C)C(=O)N(C)[C@@H](CC(C)C)C(=O)N(C)[C@@H](C(C)C)C(=O)N1C = 60 nM

Query molecule follows.
*Q* For HCV replicon in cell line ET (luc-ubi-neo/ET), Huh7 human hepatoma, give EC50 of the listed molecule: C/C=C/C[C@@H](C)[C@@H](O)[C@H]1C(=O)N[C@@H](CC)C(=O)N(C)[C@H](COCCN(C)C)C(=O)N(C)[C@@H](CC(C)C)C(=O)N[C@@H](C(C)C)C(=O)N(C)[C@@H](CC(C)C)C(=O)N[C@@H](C)C(=O)N[C@H](C)C(=O)N(C)[C@@H](CC(C)C)C(=O)N(C)[C@@H](CC(C)C)C(=O)N(C)[C@@H](C(C)C)C(=O)N1C
*A* 150 nM

###

# System: HIV-1IIIB in CEM-SS cells
# assay.procedure: Anti-HIV cytoprotection assay, acute infection model, MTS endpoint
# Assay type: cell-based
# recorded.conditions: Table 17, HIV-1IIIB in CEM-SS cells, 6-day incubation, read-out: Antiviral activity EC50
measurement.label: EC50 (nM)
Note: unit nM is implicit; provide only the numeric part.

*Q* Provide one value: measured EC50 of Cc1cn([C@H]2C[C@H](N=[N+]=[N-])[C@@H](CO)O2)c(=O)[nH]c1=O [AZT]
*A* 9

###

# assay.procedure: Stability testing: epimerization of cyclosporin derivatives in methanol, monitored by HPLC
# Assay type: physicochemical
# recorded.conditions: Table 10, MeOH at 50° C., 77 hours
*1 amine or outer side, *2 acyl side, *3 side chain or, on linkers, in order; H or OH if unused. Where a SMILES comes first, the peptide text is derived from it. [ ]: non-standard residue; d: D form. MeBmt = C/C=C/C[C@@H](C)[C@@H](O)[C@H](NC)C(=O)O; X1 = CN([C@H](SCCCN1CCOCC1)C(=O)[*:2])[*:1]; NMeL = CN[C@@H](CC(C)C)C(=O)O; NMeV = CN[C@H](C(=O)O)C(C)C; Abu = CC[C@H](N)C(=O)O
measurement.label: Epimerization % (%)
Note: unit % is implicit; provide only the numeric part.

Below are worked cases with known answers.
C/C=C/C[C@@H](C)[C@@H](O)[C@H]1C(=O)N[C@@H](CC)C(=O)N(C)[C@H](SCCCN2CCOCC2)C(=O)N(C)[C@@H](C(C)C)C(=O)N[C@@H](C(C)C)C(=O)N(C)[C@@H](CC(C)C)C(=O)N[C@@H](C)C(=O)N[C@H](C)C(=O)N(C)[C@@H](CC(C)C)C(=O)N(C)[C@@H](CC(C)C)C(=O)N(C)[C@@H](C(C)C)C(=O)N1C (cyclo(A[dA][NMeL][NMeL][NMeV][MeBmt][Abu][X1][NMeV]V[NMeL])) = 0
C/C=C/C[C@@H](C)[C@@H](O)[C@H]1C(=O)N[C@@H](CC)C(=O)N(C)[C@H](SCCCN2CCOCC2)C(=O)N(C)[C@@H](CC(C)(C)O)C(=O)N[C@@H](C(C)C)C(=O)N(C)[C@@H](CC(C)C)C(=O)N[C@@H](C)C(=O)N[C@H](C)C(=O)N(C)[C@@H](CC(C)C)C(=O)N(C)[C@@H](CC(C)C)C(=O)N(C)[C@@H](C(C)C)C(=O)N1C [drawing 1936] = 0

Query compound follows.
*Q* Provide one value: measured Epimerization % of C/C=C/C[C@@H](C)[C@@H](O)[C@H]1C(=O)N[C@@H](CC)C(=O)N(C)[C@H](SCCCN2CCOCC2)C(=O)N(C)[C@@H](CC(C)(C)OC)C(=O)N[C@@H](C(C)C)C(=O)N(C)[C@@H](CC(C)C)C(=O)N[C@@H](C)C(=O)N[C@H](C)C(=O)N(C)[C@@H](CC(C)C)C(=O)N(C)[C@@H](CC(C)C)C(=O)N(C)[C@@H](C(C)C)C(=O)N1C [drawing 1937]
*A* 0
